test-description: qHTS assay for identifying genotoxic compounds that show differential cytotoxicity against isogenic chicken DT40 cell lines with known DNA damage response pathways - Rad54/Ku70 mutant cell line (AID 743015); note: nearly all actives have a fitted effect of over 60% in size
condition-description: DT40 Rad54/Ku70 mutant viability, CellTiter-Glo, 40 h; series mostly up to 66.8 µM
Records with an inconclusive call do not appear. Calls of active or inactive are those of the source. Calls come from the whole dose curve; as a rule, active = well fitted cell-killing curve with a large enough effect in the repeat runs; inconclusive = weak or mixed curves; inactive = no such curve, though single readings can be large or run the other way.
readout-kind: outcome

Worked cases, answers included:
compound: CC(=O)CC(C)(C)O
readout-kind: outcome
result: inactive

compound: CC(O)CC(C)(C)O (stereo not given)
readout-kind: outcome
result: inactive

compound: CC(C)OC(=O)COc1ccc(Cl)cc1Cl
readout-kind: outcome
result: inactive

compound: C=CCc1ccc(OC)c(OC)c1
readout-kind: outcome
result: inactive

QUERY: outcome lookup needed for `CC(=O)Oc1ccc(C)cc1` , thanks.
RESULT: inactive

* * *

test-description: qHTS assay to identify small molecule antagonists of the retinoic acid receptor (RAR) signaling pathway (AID 1159552; note: nearly all actives have a fitted effect of over 50% in size)
condition-description: C3RL4 RARE luciferase reporter, retinol-stimulated, 6 h; series mostly up to 92.4 µM
Inconclusive results are not listed. Calls of active or inactive are those of the source. Calls follow the shape of the dose curve; as a rule, active = well fitted inhibition curve with a large enough effect in the repeat runs; inconclusive = weak or mixed curves, or effect the other way; inactive = no such curve, though single readings can be large or run the other way.
readout-kind: outcome

Worked cases, outcome given:
molecule: O=C(O)c1ccc(C(=O)O)c(C(=O)O)c1
outcome: inactive

molecule: CC(=O)Oc1ccc(C)cc1
outcome: inactive

molecule: COc1ccc(C)cc1N
outcome: inactive

molecule: O=C(O)Cn1c(=O)n(Cc2ccc(Br)cc2F)c(=O)c2ccc(Cl)cc21
outcome: inactive

molecule: CCCCOC(=O)c1ccc(N)cc1
outcome: inactive

QUERY: Field request: outcome | item: `CCOCC(=O)O`
RESULT: inactive

QUERY: Given `Clc1ccccn1` , state its recorded outcome.
RESULT: inactive

QUERY: Recorded outcome of `c1ccc(Oc2ccccc2)cc1` , please.
RESULT: inactive

QUERY: Could you share which outcome value was measured for `CCNc1cccc(C)c1` ?
RESULT: inactive

QUERY: Form field: reported outcome of `O=c1[nH]cnc2[nH]ncc12`
RESULT: inactive

* * *

test-description: qHTS assay to identify small molecule antagonists of the progesterone receptor (PR) signaling pathway - cell viability counter screen (AID 1346798);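 note: HEK293T PR-UAS-bla cells stimulated with the agonist R5020; nearly all actives have a fitted effect of over 50% in size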
condition-description: PR-UAS-bla HEK293T viability, CellTiter-Glo luminescence, 16 h; series mostly up to 92.4 µM
Inconclusive results are not listed. The source made the active and inactive calls. Calls come from the whole dose curve; as a rule, active = well fitted cell-killing curve with a large enough effect in the repeat runs; inconclusive = weak or mixed curves, or effect the other way; inactive = no such curve, though single readings can be large or run the other way.
readout-kind: outcome

Observe how each entry below is paired with its result.
compound: COc1ccccc1OCC(O)CO (stereo not drawn)
outcome: inactive
//
compound: O=c1[nH]cnc2[nH]ncc12
outcome: inactive
//
compound: COC(=O)c1cccnc1
outcome: inactive
//
compound: CCc1ccccc1CC
outcome: inactive
//
compound: Nc1ccc(Cl)c(N)c1
outcome: inactive

QUERY: Item `C[Si]1(C)O[Si](C)(C)O[Si](C)(C)O[Si](C)(C)O1` has what recorded outcome?
RESULT: inactive

QUERY: Sample `O=C(O)Cn1c(=O)n(Cc2ccc(Br)cc2F)c(=O)c2ccc(Cl)cc21` — what was its outcome?
RESULT: inactive

QUERY: Given `COc1ccc([N+](=O)[O-])cc1N` , state its recorded outcome.
RESULT: inactive

QUERY: Request the reported outcome associated with `CCOC(=O)c1ccc(N)cc1`
RESULT: inactive

QUERY: If you can, please state the reported outcome value of `CN(C)CCOC(=O)COc1ccc(Cl)cc1` .
RESULT: inactive

QUERY: Name the reported outcome value associated with the compound `CC(=O)CC(C)(C)O`
RESULT: inactive

QUERY: Fill in the blank: the reported outcome of `O=C(O)c1ccc(C(=O)O)c(C(=O)O)c1` is ____.
RESULT: inactive

QUERY: Report outcome for `CCO[Si](CCC#N)(OCC)OCC` please.
RESULT: inactive

* * *

assay-target: Nuclear receptor subfamily 1 group I member 3 (Homo sapiens)
test-description: qHTS assay to identify small molecule agonists of the constitutive androstane receptor (CAR) signaling pathway (AID 1224839); note: nearly all actives have a fitted effect of over 15% in size;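 for activation: HepG2 cells stably carrying human CAR and a CYP2B6 luciferase reporter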
condition-description: HepG2 hCAR CYP2B6-luciferase, agonist mode, 24 h; series mostly up to 92.4 µM
Results filed as inconclusive are left out. Calls of active or inactive are those of the source. The call rests on the fitted dose curve; in most records, active means well fitted activation curve with a large enough effect in the repeat runs; inconclusive means weak or mixed curves; inactive means no such curve, though single readings can be large or run the other way.
Response enum: active, inactive

Example entries and their recorded answers appear below.
compound: CCCCOC(=O)c1ccc(N)cc1
assay-target: Nuclear receptor subfamily 1 group I member 3 (Homo sapiens)
answer-label: active
--
compound: O=C(O)CCCCCCCCC(=O)O
assay-target: Nuclear receptor subfamily 1 group I member 3 (Homo sapiens)
answer-label: inactive
--
compound: CCCCC(C=O)CC (stereo not drawn)
assay-target: Nuclear receptor subfamily 1 group I member 3 (Homo sapiens)
answer-label: inactive
--
compound: CSc1ccc(Cl)cc1
assay-target: Nuclear receptor subfamily 1 group I member 3 (Homo sapiens)
answer-label: inactive
--
compound: C[Si]1(C)O[Si](C)(C)O[Si](C)(C)O[Si](C)(C)O1
assay-target: Nuclear receptor subfamily 1 group I member 3 (Homo sapiens)
answer-label: inactive

QUERY: // return assay outcome for `CCNC(=S)NCC`
RESULT: inactive

QUERY: Dear colleague, could you share the recorded outcome for `c1ccc(Oc2ccccc2)cc1` when you have a moment?
RESULT: inactive

QUERY: In this assay, the call recorded for `CCCCCCCCCCCC(=O)OC` was what?
RESULT: inactive

QUERY: Please share the test call associated with `C=Cc1ccc(C)cc1` .
RESULT: inactive

QUERY: Which result was noted for this compound in the test: `NCCNCCN`
RESULT: inactive

QUERY: Hello, I am checking results. What call was entered for `CCO[Si](CCCN)(OCC)OCC` ?
RESULT: inactive

QUERY: Look up the recorded call for `O=[N+]([O-])c1ccc2nc[nH]c2c1` in this test.
RESULT: inactive

QUERY: Status in this test for `CC(C)(Oc1ccc(CCNC(=O)c2ccc(Cl)cc2)cc1)C(=O)O` ?
RESULT: inactive

QUERY: Short answer needed: outcome of this test for `CCCCCCCCCCCCCCCC(=O)OC(C)C` ?
RESULT: inactive

* * *

assay-target: Thyrotropin receptor (Homo sapiens) (UniProt P16473)
Sequence (P16473 whole entry, looked up): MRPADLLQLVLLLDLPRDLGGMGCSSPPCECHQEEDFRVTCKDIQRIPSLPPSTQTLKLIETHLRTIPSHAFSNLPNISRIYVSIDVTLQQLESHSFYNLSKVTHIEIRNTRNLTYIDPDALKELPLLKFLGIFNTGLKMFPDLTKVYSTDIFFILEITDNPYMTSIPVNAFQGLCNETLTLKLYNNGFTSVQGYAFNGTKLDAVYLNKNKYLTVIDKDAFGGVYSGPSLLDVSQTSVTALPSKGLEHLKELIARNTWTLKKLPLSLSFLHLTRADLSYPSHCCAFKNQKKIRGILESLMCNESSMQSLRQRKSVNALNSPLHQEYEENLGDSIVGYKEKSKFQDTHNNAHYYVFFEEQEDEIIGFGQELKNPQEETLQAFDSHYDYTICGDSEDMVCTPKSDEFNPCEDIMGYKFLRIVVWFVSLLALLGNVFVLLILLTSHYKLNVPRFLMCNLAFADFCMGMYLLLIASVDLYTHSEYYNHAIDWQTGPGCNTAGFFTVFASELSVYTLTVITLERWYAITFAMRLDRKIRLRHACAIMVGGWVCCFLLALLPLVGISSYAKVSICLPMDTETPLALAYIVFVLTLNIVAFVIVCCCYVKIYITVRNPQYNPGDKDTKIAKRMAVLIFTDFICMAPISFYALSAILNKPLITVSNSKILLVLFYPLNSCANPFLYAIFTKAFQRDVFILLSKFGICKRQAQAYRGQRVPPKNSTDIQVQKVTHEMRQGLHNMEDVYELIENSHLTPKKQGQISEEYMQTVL
test-description: qHTS assay to identify small molecule antagonists of the thyroid stimulating hormone receptor (TSHR) signaling pathway (AID 1259385); note: nearly all actives have a fitted effect of over 20% in size
condition-description: TSHR-HEK293 cAMP HTRF, TSH-stimulated antagonist mode; series mostly up to 92.4 µM
Description: U.S. Tox21 Program National Center for Advancing Translational Sciences [NCATS] NIH Chemical Genomics Center [NCGC] U.S. Environmental Protection Agency [EPA] National Institutes of Environmental Health Sciences [NIEHS] National Toxicology Program [NTP] […] Tox21 Assay Protocol Summary: TSHR-Hek293 cells were dispensed at 800 cells/4uL/well in 1536-well white plates using a Multidrop dispenser. […] The fluorescence intensity in the plates was measured using an Envision plate reader. […]
Records with an inconclusive call do not appear. Activity calls are given as the source filed them. Calls come from the whole dose curve.
readout-kind: outcome

compound: CCNc1ccccc1
result: inactive
--
compound: Cc1ccc2ncccc2c1
result: inactive
--
compound: C=C(C)[C@H]1CC=C(C)C(=O)C1
result: inactive
--
compound: CC1(C)S[C@@H]2[C@H](NC(=O)COc3ccccc3)C(=O)N2[C@H]1C(=O)O
result: inactive
--
compound: CCOCC(=O)O
result: inactive
--
compound: CN/C(=C\[N+](=O)[O-])NCCSCc1csc(CN(C)C)n1
result: inactive

QUERY: What value of outcome has been recorded for this entry: `C=CC(=O)OCCC(=O)O`
RESULT: inactive

QUERY: Name the reported outcome value associated with the compound `CCCCOC(=O)c1ccc(N)cc1`
RESULT: inactive

QUERY: I have this compound here, `C=C(C)CNCC` , and I need its recorded outcome.
RESULT: inactive

QUERY: Find the recorded outcome belonging to `CSc1ccc(Cl)cc1` and report it.
RESULT: inactive

QUERY: Dear colleague, I am looking for the recorded outcome of the following compound: `C=Cc1ccc(C)cc1`
RESULT: inactive

QUERY: Find the recorded outcome belonging to `CN(C)c1ccc(O)c2c1C[C@H]1C[C@H]3[C@H](N(C)C)C(=O)C(C(N)=O)=C(O)[C@@]3(O)C(=O)C1=C2O` and report it.
RESULT: inactive

* * *

test-description: qHTS assay to identify small molecule agonists of the sonic hedgehog signaling (Shh) pathway - cell viability counter screen (AID 1259366); note: nearly all actives have a fitted effect of over 50% in size
condition-description: NIH/3T3 Gli1-Luc viability, CellTiter-Fluor, 24 h; series mostly up to 92.4 µM
Inconclusive results are not listed. Calls of active or inactive are those of the source. Calls come from the whole dose curve; as a rule, active = well fitted cell-killing curve with a large enough effect in the repeat runs; inconclusive = weak or mixed curves, or effect the other way; inactive = flat fitted curve, though single readings scatter.
readout-kind: outcome

Answered cases to consult:
compound: CC1(C)NC(=O)NC1=O
readout-kind: outcome
result: inactive
//
compound: C=CCCCCCCCCC(=O)O
readout-kind: outcome
result: inactive
//
compound: C=CC(=O)OCCC(=O)O
readout-kind: outcome
result: inactive
//
compound: CCCCCCCCCCO
readout-kind: outcome
result: inactive
//
compound: O=C1C(c2[nH]c3ccccc3c2O)=Nc2ccccc21
readout-kind: outcome
result: inactive

QUERY: Would you mind telling me what outcome value was observed for `O=C(O)/C=C/C(=O)O` ?
RESULT: inactive

QUERY: State the recorded outcome for this entry: CC(CCO)CC(C)(C)C (stereo not drawn)
RESULT: inactive

QUERY: Field request: outcome | item: CC(CCl)OP(=O)(OC(C)CCl)OC(C)CCl (stereo not drawn)
RESULT: inactive

QUERY: Please look up its outcome: `N[C@H](Cc1c[nH]c2ccccc12)C(=O)O`
RESULT: inactive

QUERY: Param item = COc1ccccc1OCC(O)CO (stereo not drawn) ; retrieve measured outcome.
RESULT: inactive

QUERY: If you can, please state the reported outcome value of `CCOCCOCCOCCO` .
RESULT: inactive

QUERY: What does the record list as outcome for `CC(C)OP(=O)(CP(=O)(OC(C)C)OC(C)C)OC(C)C` ?
RESULT: inactive

QUERY: Which outcome value belongs to `CC1(C)S[C@@H]2[C@H](NC(=O)COc3ccccc3)C(=O)N2[C@H]1C(=O)O` ?
RESULT: inactive

QUERY: Would you mind telling me what outcome value was observed for `Nc1ccc(Cl)c(N)c1` ?
RESULT: inactive

QUERY: Give its outcome value. Item: `O=C(O)c1cc2ccccc2cc1O`
RESULT: inactive

QUERY: Find the recorded outcome belonging to CC(O)CC(C)(C)O (stereo not drawn) and report it.
RESULT: inactive

QUERY: Sample `CC(C)OC(=O)COc1ccc(Cl)cc1Cl` — what was its outcome?
RESULT: inactive

QUERY: Fill in: outcome of `Cc1ccc2ncccc2c1` is ___
RESULT: inactive

QUERY: I have this compound here, `CNC(=O)Oc1ccc2c(c1)[C@]1(C)CCN(C)[C@@H]1N2C` , and I need its recorded outcome.
RESULT: inactive

QUERY: # query: outcome of entry `CSc1ccc(Cl)cc1`
RESULT: inactive

QUERY: Dear colleague, I am looking for the recorded outcome of the following compound: `O=C(O)c1ccc(C(=O)O)c(C(=O)O)c1`
RESULT: inactive
